System: COLO 205 colon
Assay: NCI-60 one-dose screen, 48 h
Settings: 10 µM unless noted
Experimental: Cells are grown in 96 well plates and exposed to the test compound for 48 hours. Compounds are tested at a single concentration, which is 10^-5 M for most compounds. The reported endpoint is percent growth (GI% or GIPRCNT), where numbers from 0 - 100% represent growth inhibition, and numbers from -100% - 0 represent cell death. For example, a value of 40 represents 60% growth inhibition. A value of 0 means no net growth occurred over the course of the experiment. […]
This is part of a sample that, as a whole, favours compounds with a hit. Of some 83,000 tested, about 20% had one in any assay. Activity calls are given as the source filed them. How the source made its calls: active means growth percent below 10; inactive means the rest.
Assign a class; possible classes are YES (active), NO (inactive)

O=c1ccc2nc(-c3ccccc3)nn(-c3ccccn3)c-2c1 ... YES
C(CCCSC1=NCCN1)CCSC1=NCCN1 ... NO
COc1cccc2cc(N(C)c3nc(C)nc4c3CCC4)ccc12 ... YES
COC(CCP(=O)(c1ccccc1)c1ccccc1)(C(=O)c1ccccc1)c1ccccc1 (stereo not drawn) ... NO
[2H]C([2H])([2H])Oc1ccc(/C=C/C(=O)/C=C(O)/C=C/c2ccc(OC([2H])([2H])[2H])c(OC([2H])([2H])[2H])c2)cc1OC([2H])([2H])[2H] ... NO

*Q* Field: outcome | Entry: C#CCOc1cccc(-c2ncnc3cc(NC(=O)CCl)ccc23)c1
*A* YES

*Q* Any idea what this test logged for NC(=N\N=C/c1ccc(Cl)cc1Cl)/C(N)=N\N=C/c1ccc(Cl)cc1Cl ?
*A* NO

*Q* Which outcome was assigned to O=C(Nc1cccc(Cn2c(=O)[nH]c3ccc(Oc4ncccn4)cc3c2=O)c1)c1cccc(Cl)c1 in this test?
*A* NO

*Q* What did this assay record as the result for C=CN(C(=O)N1CCN(c2cc3c(cc2F)c(=O)c(C(=O)O)cn3C2CC2)CC1)c1nc(-c2ccc(C)cc2)cs1 ?
*A* NO

*Q* Query: recorded result category for CCOC(=O)C1=C(C)N(C)C(=O)N(C)C1c1ccccc1 (stereo not drawn) in this test
*A* NO

====

Test system: DU-145 prostate
Assay: NCI-60 one-dose screen, 48 h (100 = growth as untreated, 0 = no growth, -100 = all killed)
Conditions: 10 µM unless noted
Protocol: Cells are grown in 96 well plates and exposed to the test compound for 48 hours. Compounds are tested at a single concentration, which is 10^-5 M for most compounds. The reported endpoint is percent growth (GI% or GIPRCNT), where numbers from 0 - 100% represent growth inhibition, and numbers from -100% - 0 represent cell death. For example, a value of 40 represents 60% growth inhibition. A value of 0 means no net growth occurred over the course of the experiment. […]
Compounds without any hit were thinned out: in the full panel of roughly 83,000, 20% have a hit.
reported_property: growth (%)
// return numeric value only (unit: %, not printed)

Reference set, count: 3
CCOC(=O)C1=C(C)N(C)C(=O)N(C)C1c1ccccc1 (stereo not given) ... 107
CC(=O)OCCOc1cc(Cl)c(Cl)cc1Cl ... 105
CC(=O)OCC(=O)O[C@@H]1C[C@]2(C(C)C)O[C@@]1(C)[C@@H]1CC[C@@H](C)[C@H]1[C@@H]2OC(=O)/C=C/c1ccccc1 ... 101

*Q* Form field: reported growth of Cc1ccc(OCCOCCOCCOCCOc2ccc(C)n(O)c2=S)c(=S)n1O
*A* 17.5

*Q* For the compound shown here, O=C(Nc1ccc(Oc2cccc(F)c2)c(Cl)c1)c1cnccn1 , give the reported growth.
*A* 19.1

====

test system: CCRF-CEM leukemia; assay: NCI-60 one-dose screen, 48 h; settings: 10 µM unless noted
About 83,000 compounds went through this panel and 20% of them were active in at least one assay; those are over-represented in the sample as a whole. Active and inactive are the calls of the source. How the source made its calls: active means growth percent below 10; inactive means the rest.
The categories you may choose from are 1.0 = active, 0.0 = inactive

Please review the following examples before continuing.
Cc1[nH]c(C(=O)Nc2ccccc2OC2CCNC2)c(Cl)c1Cl (stereo not given) ... 0.0
C(CCCSC1=NCCN1)CCSC1=NCCN1 ... 0.0
COc1ccc(-c2ccc(-c3ccc(C(=N)N)nc3)s2)cc1 ... 1.0
COC(=O)[C@H](C)NC(=O)c1ccc(NC(=O)c2[nH]c(C)c(Cl)c2Cl)c(OCCN)c1 ... 0.0

*Q* Recorded test call requested for COC(=O)CCc1c(/C=C2\N=C(c3ccc[nH]3)C=C2OC)[nH]c(C)c1C(=O)OCc1ccccc1
*A* 1.0

*Q* Would you mind telling me which call this test gave CC(=O)Cc1nsc(NC(=O)c2cc(-c3cc(Cl)ccc3Cl)oc2C)n1 ?
*A* 0.0

*Q* Write down the call the test reported for this molecule. Item: C[C@@H]1N=C(c2ccc(Cl)cc2Cl)Nc2nc3ccccn3c2C1=O
*A* 0.0

====

tested on: MALME-3M melanoma; assay: NCI-60 one-dose screen, 48 h (100 = growth as untreated, 0 = no growth, -100 = all killed); details: 10 µM unless noted
The panel holds about 83,000 compounds, 20% with a hit somewhere; the sample as a whole holds those more often.
Below: a set of entries, each annotated with reported growth.
Output spec: scalar in %, unitless text.

Cc1c(C(=O)C(SC(=S)N2CCOCC2)SC(=S)N2CCOCC2)nnn1-c1ccc([N+](=O)[O-])cc1 ... 93.7
CC1(C)CCC[C@]23C(=O)O[C@](O)(C(=O)C4=C[C@@](C)(/C=C/CCCc5ccc6ccc7cccc8ccc5c6c78)CC[C@@]42O)[C@@H]13 ... -93.6
O=C(Nc1cccc2c1C(=O)c1cccc(NC(=O)c3ccc(C(=O)Nc4cccc5c4C(=O)c4cccc(NC(=O)c6ccccc6)c4C5=O)cc3)c1C2=O)c1ccccc1 ... 101

*Q* Reported growth for O=C1NCCS(=O)(=O)/C1=C\C=C\c1cccc(C(F)(F)F)c1 : what is it?
*A* 29.9

====

system: U251 CNS; assay: NCI-60 one-dose screen, 48 h; conditions: 10 µM unless noted
The panel holds about 83,000 compounds, 20% with a hit somewhere; the sample as a whole holds those more often. Calls of active or inactive are those of the source. Rule for the calls: active = growth percent below 10; inactive = the rest.
Use one of these outcomes when replying: active, inactive

C=C(C)[C@@H]1CC[C@]2(COC(=O)c3cccnc3)CC[C@]3(C)[C@H](CC[C@@H]4[C@@]5(C)CCCN(C(=O)c6cccnc6)C(C)(C)[C@@H]5CC[C@]43C)[C@@H]12 ... inactive

*Q* # outcome recorded in this test, key = O=C1c2cccnc2C(=O)c2c1c(C(=O)OCCCN1CCOCC1)c1ccccn21
*A* active

*Q* Look up the recorded call for O=C(NS(=O)(=O)c1ccccc1)n1cc(-c2ccncc2)c(-c2cc(O)cc(Cl)c2)n1 in this test.
*A* inactive

*Q* Dear colleague, could you share the recorded outcome for COc1cc(/C=C2\CN(S(=O)(=O)c3ccc(C)cc3)C/C(=C\c3cc(CN4CCCC4)c(O)c(OC)c3)C2=O)cc(CN2CCCC2)c1O when you have a moment?
*A* active

*Q* Dear colleague, could you share the recorded outcome for CNC(=O)c1cc(Oc2ccc3nc(NC(=O)NC(C)C)sc3c2)ccn1 when you have a moment?
*A* inactive

*Q* // return assay outcome for O=C1/C(=C/c2ccc(-c3ccc(Cl)cc3)o2)SC(=S)N1CCc1ccc(O)cc1
*A* inactive

*Q* Test call, this molecule: c1ccc(Cn2cc3c(c2)-c2nc(Nc4ccccc4)ncc2CC3)cc1
*A* inactive

*Q* Could you kindly confirm the outcome this assay logged for COC(=O)c1ccc(-n2cc(CCCOS(=O)(=O)c3ccc(F)cc3)nn2)cc1 ?
*A* inactive

*Q* Dear colleague, could you share the recorded outcome for CN1CCN(Cc2ccc(NC(=O)c3cncc(C#Cc4c(N)ncc5cc(F)ccc45)c3)cc2C(F)(F)F)CC1 when you have a moment?
*A* active

*Q* Identify the outcome logged in this assay for the molecule shown: CNC(=O)c1cc(Oc2cccc3nc(NC(=O)Nc4ccc(F)cc4F)ccc23)ccn1
*A* inactive

*Q* Just curious, what result did FC(F)(F)c1cc(N2CCCCC2)nc(NCCCNc2ccnc3cc(Cl)ccc23)n1 get here?
*A* inactive

*Q* Just curious, what result did COc1cccc(C2C(C#N)=C(N)Oc3c2ccc2ccccc32)c1 (centres undefined) get here?
*A* inactive

*Q* What did the test return for C/C(=N\NC(=O)c1ccc(C(C)(C)C)cc1)c1ccc(O)cc1O ?
*A* inactive

*Q* Each molecule tested received a call. Report the one for Cc1ccc(Nc2oc(-c3ccccc3)nc2[P+](c2ccccc2)(c2ccccc2)c2ccccc2)cc1 .
*A* active

*Q* Status in this test for O=C(O)CCCN1C(=O)CSC1=S ?
*A* inactive

*Q* Which result was noted for this molecule in the test: Nc1cc(-c2ccc(Cl)cc2)nn1-c1nc(-c2ccc(Br)cc2)cs1
*A* inactive

*Q* GET /call?item= C#CCOc1cc(/C=N/Nc2nc(-c3ccc(OC)cc3)cs2)ccc1O returns the recorded outcome of this test.
*A* inactive

*Q* What is the recorded call for this molecule in the test? COc1cccc(CNc2nnc(C)c(C)n2)c1O
*A* inactive

*Q* I would be grateful if you could indicate the recorded call for C=C1/C(=C\C=C2/CCC[C@]3(C)[C@@H]([C@H](C)CCCC(C)(C)O)CC[C@@H]23)C[C@@H](OC(=O)CBr)C[C@@H]1O .
*A* inactive
